# assayed_target: Casein kinase II subunit alpha' (Homo sapiens);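 note: residual kinase activity of CSNK2A2 expressed as percent of untreated control, so lower values mean stronger inhibition, with Jnk Inhibitor II at 100 µM as reference inhibitor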
# assay_setup: at 1 µM
The following compounds are listed with their measured residual activity values.
Write the answer as a number in %, unit excluded.

Q: Short answer please: residual activity, Casein kinase II subunit alpha' (Homo sapiens), entry "O=C(c1ccccc1)c1ccc(N2CCOCC2)cc1O"
Ans: 122

Q: Could you do the same for "Nc1nc(Nc2ccc(S(N)(=O)=O)cc2)nn1C(=O)c1c(F)cccc1F" , please?
Ans: 104

Q: Could you do the same for "O=c1cc(N2CCOCC2)oc2c1ccc1ccccc12" , please?
Ans: 56

Q: Could you do the same for "N#C/C(=C1/Nc2ccccc2S1)c1ccnc(NCCc2cccnc2)n1" , please?
Ans: 41

Q: Could you do the same for "CCCC(=O)Oc1ccc2[nH]c(C(=O)c3cc4ccccc4[nH]3)cc2c1" , please?
Ans: 132

Q: Could you do the same for "CC(C)[C@H](CO)Nc1nc(Nc2cc(N)cc(Cl)c2)c2ncn(C(C)C)c2n1" , please?
Ans: 120

Q: Could you do the same for "O=C(O)/C=C/c1cc(Br)c(Br)c(Br)c1Br" , please?
Ans: 33

Q: Could you do the same for "Nc1ncnc2c1c(-c1ccc(Oc3ccccc3)cc1)cn2C1CCCC1" , please?
Ans: 118

Q: Could you do the same for "O=C1Nc2ccc(Cl)cc2/C1=C/c1cc(Cl)c(O)c(Cl)c1" , please?
Ans: 92

Q: Could you do the same for "CC(C)(C)c1nc2c3ccc(F)cc3c3c(=O)[nH]ccc3c2[nH]1" , please?
Ans: 100

Q: Could you do the same for "O=C1NC(=O)c2c1c1c3ccccc3[nH]c1n1cncc21" , please?
Ans: 81

---

# assayed_target: Misshapen-like kinase 1 (Homo sapiens) (UniProt Q8N4C8)
# Sequence (Q8N4C8 whole entry, looked up): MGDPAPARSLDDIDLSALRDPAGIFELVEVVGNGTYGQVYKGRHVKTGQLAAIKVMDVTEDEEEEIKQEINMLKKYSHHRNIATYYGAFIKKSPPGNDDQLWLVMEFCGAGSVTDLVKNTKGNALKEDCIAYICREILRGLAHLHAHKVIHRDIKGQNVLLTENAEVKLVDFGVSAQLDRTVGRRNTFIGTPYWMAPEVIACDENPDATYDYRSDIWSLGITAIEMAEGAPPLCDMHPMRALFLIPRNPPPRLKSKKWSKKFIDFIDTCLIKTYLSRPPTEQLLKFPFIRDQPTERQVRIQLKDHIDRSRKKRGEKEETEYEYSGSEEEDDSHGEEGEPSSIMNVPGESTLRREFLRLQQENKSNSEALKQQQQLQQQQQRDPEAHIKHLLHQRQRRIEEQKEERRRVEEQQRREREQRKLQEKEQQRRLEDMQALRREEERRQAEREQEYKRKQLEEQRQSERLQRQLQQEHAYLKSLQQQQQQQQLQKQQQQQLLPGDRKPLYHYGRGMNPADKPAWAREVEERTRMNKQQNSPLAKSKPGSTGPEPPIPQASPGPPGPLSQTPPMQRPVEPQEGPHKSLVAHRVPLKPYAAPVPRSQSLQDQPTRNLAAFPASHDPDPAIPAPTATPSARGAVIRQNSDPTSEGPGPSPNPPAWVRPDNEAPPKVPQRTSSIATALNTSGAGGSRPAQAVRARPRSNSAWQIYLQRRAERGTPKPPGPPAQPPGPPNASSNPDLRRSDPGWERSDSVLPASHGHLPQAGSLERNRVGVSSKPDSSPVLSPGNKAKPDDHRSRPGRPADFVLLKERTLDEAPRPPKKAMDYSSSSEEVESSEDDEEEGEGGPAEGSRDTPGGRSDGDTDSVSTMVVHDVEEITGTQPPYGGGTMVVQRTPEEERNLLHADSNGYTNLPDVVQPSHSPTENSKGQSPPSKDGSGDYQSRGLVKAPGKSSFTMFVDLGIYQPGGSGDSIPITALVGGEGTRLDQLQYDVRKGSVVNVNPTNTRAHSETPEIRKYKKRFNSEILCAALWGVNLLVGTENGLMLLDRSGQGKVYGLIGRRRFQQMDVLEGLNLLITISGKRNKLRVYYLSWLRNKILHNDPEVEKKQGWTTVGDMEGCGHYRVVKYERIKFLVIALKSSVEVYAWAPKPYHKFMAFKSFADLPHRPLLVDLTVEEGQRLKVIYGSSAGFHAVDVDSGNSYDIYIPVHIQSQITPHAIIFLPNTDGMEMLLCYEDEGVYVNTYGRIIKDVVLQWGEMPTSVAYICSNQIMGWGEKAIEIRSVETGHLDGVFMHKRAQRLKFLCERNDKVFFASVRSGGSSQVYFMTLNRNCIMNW
# assay_setup: at 1 µM
Hi, to clarify the labels: label 1 covers residual activity from 90% upward, label 0 covers anything below 90%.

Below, 3 compounds whose answers are already recorded.
chem_smiles	assayed_target	label
CN(C)S(=O)(=O)c1ccc2c(c1)/C(=C/c1cc3c([nH]1)CCCC3)C(=O)N2	Misshapen-like kinase 1 (Homo sapiens) (UniProt Q8N4C8)	label 1
CCCCc1c(-c2ccc(OC)cc2)[nH]c2nccnc12	Misshapen-like kinase 1 (Homo sapiens) (UniProt Q8N4C8)	label 1
O=C(c1cc2cc(O)ccc2[nH]1)c1cc2cc(O)ccc2[nH]1	Misshapen-like kinase 1 (Homo sapiens) (UniProt Q8N4C8)	label 0

From here, focus on the item given below.
Q: Evaluate "O=c1cc(N2CCNCC2)oc2c(-c3ccccc3)cccc12" : residual activity at minimum 90%?
Ans: label 1

---

# assayed_target: Calcium/calmodulin-dependent protein kinase type II subunit gamma (Homo sapiens)
# assay_setup: at 10 µM
residual activity under 50% gets TRUE, anything at or over 50% gets FALSE.

Q: Consider the compound "O=C(Nc1nc2ccccc2n1CCN1CCOCC1)c1cccc([N+](=O)[O-])c1" . Is its residual activity strictly less than 50%?
Ans: FALSE

---

# assayed_target: Ribosomal protein S6 kinase alpha-1 (Homo sapiens)
# assay_setup: at 10 µM
The following compounds are listed with their measured residual activity values.
Write the answer as a number in %, unit excluded.

chem_smiles	residual activity, %
CC(C)(C)c1nc2c3ccc(F)cc3c3c(=O)[nH]ccc3c2[nH]1	55
O=C(c1ccccc1)c1ccc(N2CCOCC2)cc1O	85
Nc1ncnc2c1c(-c1ccc(Oc3ccccc3)cc1)cn2C1CCCC1	39
CN(C)S(=O)(=O)c1ccc2c(c1)/C(=C/c1cc3c([nH]1)CCCC3)C(=O)N2	95

Q: Which measured residual activity value corresponds to "CC(C)(C)n1nc(Cc2cccc3ccccc23)c2c(N)ncnc21" ?
Ans: 65

Q: Could you do the same for "O=C1NC(=O)c2c1c1c3ccccc3[nH]c1n1cncc21" , please?
Ans: 43

Q: Could you do the same for "NC(=O)c1cccc(-c2cc(Nc3ccc(OC(F)(F)F)cc3)ncn2)c1" , please?
Ans: 94

Q: Could you do the same for "Cc1cc(C)c(/C=C2\C(=O)Nc3ccccc32)[nH]1" , please?
Ans: 11

Q: Could you do the same for "O=C1NC(=O)C(c2cn(CCCn3ccnc3)c3ccccc23)=C1Nc1ccccc1" , please?
Ans: 1

Q: Could you do the same for "CCCCc1c(-c2ccc(OC)cc2)[nH]c2nccnc12" , please?
Ans: 109

Q: Could you do the same for "COc1ccc(COc2ccc(Cc3cnc(N)nc3N)cc2OC)cc1" , please?
Ans: 109

Q: Could you do the same for "O=C(c1cc2cc(O)ccc2[nH]1)c1cc2cc(O)ccc2[nH]1" , please?
Ans: 9

Q: Could you do the same for "CCN(CC)CCNC(=O)c1c(C)[nH]c(/C=C2\C(=O)Nc3ccc(Cl)cc32)c1C" , please?
Ans: 2

Q: Could you do the same for "CC(C)c1nn(-c2c(Cl)cccc2Cl)c2nc(Cc3ccc(OCCO)cc3)[nH]c(=O)c12" , please?
Ans: 56

Q: Could you do the same for "O=c1cc(N2CCNCC2)oc2c(-c3ccccc3)cccc12" , please?
Ans: 96

Q: Could you do the same for "COc1ccc2c(c1)c(C1=C(c3c[nH]c4ccccc34)C(=O)NC1=O)cn2CCCN(C)C" , please?
Ans: 1
